Where these numbers come from: ChEMBL document CHEMBL1124660

# system.name: UniProt P07943
# test.summary: Inhibition of aldose reductase from rat lens. Value ranges from 40 - 680
quantity.name: pIC50
Give bare numbers, as −log10 of the molar value.

Enquiry: Param item = O=C(O)CN(C(=O)c1ccccc1)c1ccc2ccccc2c1 ; retrieve measured pIC50.
Return: 3.66

---

# system.name: Aldo-keto reductase family 1 member B1 (Rattus norvegicus, UniProt P07943)
# test.summary: Inhibition of aldose reductase from rat lens. Value ranges from 300 - 2000
quantity.name: IC50 (µM)
Give bare numbers, in µM.

Enquiry: Param item = COc1ccc(N(C(C)=O)C(C)C(=O)O)cc1 (stereo unspecified) ; retrieve measured IC50.
Return: 950

---

# system.name: Aldo-keto reductase family 1 member B1 (Rattus norvegicus, UniProt P07943)
# test.summary: Inhibition of aldose reductase from rat lens. Value ranges from 4.9 - 23
quantity.name: IC50 (µM)
Answers are plain numbers, in µM.

Enquiry: // lookup IC50 | system=Aldo-keto reductase family 1 member B1 (Rattus norvegicus, UniProt P07943) | key= O=C(O)Cn1c(=O)c2ccccc2c2ccccc21
Return: 10.7

---

# system.name: Aldo-keto reductase family 1 member B1 (Rattus norvegicus)
# test.summary: Inhibition of aldose reductase from rat lens. Value ranges from 9 - 69
quantity.name: IC50 (µM)
Numbers only, in µM.

Enquiry: Param item = CC(=O)N(CC(=O)O)c1ccc(Cl)cc1 ; retrieve measured IC50.
Return: 25

---

# system.name: Aldo-keto reductase family 1 member B1 (Rattus norvegicus)
# test.summary: Inhibition of aldose reductase from rat lens. Value ranges from 0.6 - 47
quantity.name: IC50 (µM)
Numbers only, in µM.

Enquiry: Param item = CC(=O)N(CC(=O)O)c1ccc([N+](=O)[O-])cc1 ; retrieve measured IC50.
Return: 5.8

---

# system.name: Aldo-keto reductase family 1 member B1 (Rattus norvegicus, UniProt P07943)
# test.summary: Inhibition of aldose reductase from rat lens. Value ranges from 0.3 - 2.3
quantity.name: IC50 (nM)
One number for each entry, in nM.

Enquiry: Param item = O=C(O)CN(C(=O)c1ccccc1)c1cccc([N+](=O)[O-])c1 ; retrieve measured IC50.
Return: 860

---

# system.name: Aldo-keto reductase family 1 member B1 (Rattus norvegicus)
# test.summary: Inhibition of aldose reductase from rat lens. Value ranges from 25-64
quantity.name: IC50 (µM)
Numbers only, in µM.

Enquiry: Param item = O=C(O)CNC(=O)c1ccc2ccccc2c1 ; retrieve measured IC50.
Return: 40

---

# system.name: Aldo-keto reductase family 1 member B1 (Rattus norvegicus, UniProt P07943)
# test.summary: Inhibition of aldose reductase from rat lens. Value ranges from 10 - 42
quantity.name: pIC50
Give bare numbers, as −log10 of the molar value.

Enquiry: // lookup pIC50 | system=Aldo-keto reductase family 1 member B1 (Rattus norvegicus, UniProt P07943) | key= CC(=O)N(CC(=O)O)c1cccc([N+](=O)[O-])c1
Return: 4.57

---

# system.name: Aldo-keto reductase family 1 member B1 (Rattus norvegicus, UniProt P07943)
# test.summary: Inhibition of aldose reductase from rat lens. Value ranges from 1.5 - 16
quantity.name: IC50 (µM)
One number for each entry, in µM.

Enquiry: // lookup IC50 | system=Aldo-keto reductase family 1 member B1 (Rattus norvegicus, UniProt P07943) | key= O=C(O)CN(C(=O)c1ccccc1)c1ccc(Cl)cc1
Return: 5

---

# system.name: Aldo-keto reductase family 1 member B1 (Rattus norvegicus)
# test.summary: Inhibition of aldose reductase from rat lens. Value ranges from 6 - 14
quantity.name: pIC50
Answers are plain numbers, as −log10 of the molar value.

Enquiry: Param item = O=C(O)CN(C(=O)c1ccccc1)c1ccccc1 ; retrieve measured pIC50.
Return: 5.02
